Target: UniProt P31652
Assay: Ability to inhibit high affinity uptake of [3H]-5-HT at Serotonin transporter (SERT) using rat midbrain
Format: tissue-based
Sequence (P31652 whole entry, looked up): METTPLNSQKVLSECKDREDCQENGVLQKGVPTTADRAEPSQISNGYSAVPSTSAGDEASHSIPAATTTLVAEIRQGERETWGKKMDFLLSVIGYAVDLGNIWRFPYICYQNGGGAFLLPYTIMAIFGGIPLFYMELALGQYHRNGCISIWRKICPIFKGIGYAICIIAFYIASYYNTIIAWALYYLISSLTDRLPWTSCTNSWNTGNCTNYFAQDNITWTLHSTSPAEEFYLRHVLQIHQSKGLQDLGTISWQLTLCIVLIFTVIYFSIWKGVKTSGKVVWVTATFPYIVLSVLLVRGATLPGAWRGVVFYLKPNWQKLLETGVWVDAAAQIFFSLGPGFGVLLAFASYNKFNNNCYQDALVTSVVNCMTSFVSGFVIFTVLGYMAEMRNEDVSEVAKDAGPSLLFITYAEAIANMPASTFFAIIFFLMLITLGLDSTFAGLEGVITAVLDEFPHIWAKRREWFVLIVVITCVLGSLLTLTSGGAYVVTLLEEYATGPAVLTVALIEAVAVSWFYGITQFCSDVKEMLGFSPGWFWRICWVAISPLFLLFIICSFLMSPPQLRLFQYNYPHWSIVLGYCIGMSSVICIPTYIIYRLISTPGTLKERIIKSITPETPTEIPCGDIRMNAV
measured_attribute: Ki

given_smiles | tested_target | measured_attribute | readout_value
CN1CC[C@H](c2ccc(Cl)cc2)[C@@H](C(=O)O)C1 | UniProt P31652 | Ki | 282 µM

* * *

Target: Monoamine transporters; serotonin & dopamine (Rattus norvegicus) (UniProt P31652+P23977)
Sequence (P31652 whole entry, looked up, one chain of several): as the sequence (P31652 whole entry, looked up) above
Assay: Ratio of affinity for serotonin transporter to that of dopamine transporter
Assay type: protein assay
measured_attribute: Ratio

compound | readout_value
CN1CC[C@H](c2ccc(Cl)cc2)[C@@H](CCCF)C1 | 120
CN1CC[C@H](c2ccc(Cl)cc2)[C@@H](C(=O)OC(C)(C)C)C1 | 18
CN1CC[C@H](c2ccc(Cl)cc2)[C@@H](CC(=O)N(C)C)C1 | 125
CN1CC[C@H](c2ccc(Cl)cc2)[C@@H](COC(=O)NC23CC4CC(CC(C4)C2)C3)C1 | 0.66
CN1CC[C@H](c2ccc(Cl)cc2)[C@@H](CCC(=O)Nc2ccccc2)C1 | 1.8
CN1CC[C@H](c2ccc(Cl)cc2)[C@@H](CCC(=O)NC23CC4CC(CC(C4)C2)C3)C1 | 1.3
CCC[C@H]1CN(C)CC[C@@H]1c1ccc(Cl)cc1 | 11
CN1CC[C@H](c2ccc(Cl)cc2)[C@@H](CCCO)C1 | 175
CN1CC[C@H](c2ccc(Cl)cc2)[C@@H](CCC(=O)O)C1 | 3.5
CN1CC[C@H](c2ccc(Cl)cc2)[C@@H](CC(=O)OCCCc2ccccc2)C1 | 2.3
CCNC(=O)OC[C@H]1CN(C)CC[C@@H]1c1ccc(Cl)cc1 | 4.7
CN1CC[C@H](c2ccc(Cl)cc2)C(C(=O)Oc2ccccc2)C1 (stereo partly specified) | 2.3
CN1CC[C@H](c2ccc(Cl)cc2)[C@@H](C(=O)O)C1 | 0.76
CN1CC[C@H](c2ccc(Cl)cc2)[C@@H](C(=O)OCCCCCc2ccccc2)C1 | 34
CNC(=O)C[C@H]1CN(C)CC[C@@H]1c1ccc(Cl)cc1 | 2.5
COC(=O)CC[C@H]1CN(C)CC[C@@H]1c1ccc(Cl)cc1 | 3.8
CN1CC[C@H](c2ccc(Cl)cc2)[C@@H](CC(=O)NC23CC4CC(CC(C4)C2)C3)C1 | 0.53
CN1CC[C@H](c2ccc(Cl)cc2)[C@@H](COC(=O)Nc2ccccc2)C1 | 14
CN1CC[C@H](c2ccc(Cl)cc2)[C@@H](CC(=O)NCc2ccccc2)C1 | 0.71
CN1CC[C@H](c2ccc(Cl)cc2)[C@@H](COC(=O)c2ccccc2)C1 | 1.1
COC(=O)/C=C/[C@H]1CN(C)CC[C@@H]1c1ccc(Cl)cc1 | 9.5
CCOC(=O)C[C@H]1CN(C)CC[C@@H]1c1ccc(Cl)cc1 | 2.4
CN1CC[C@H](c2ccc(Cl)cc2)[C@@H](CC(=O)N(C)Cc2ccccc2)C1 | 0.4
C=CCOC[C@H]1CN(C)CC[C@@H]1c1ccc(Cl)cc1 | 3.9
CC(=O)OC[C@H]1CN(C)CC[C@@H]1c1ccc(Cl)cc1 | 1.5
CN1CC[C@H](c2ccc(Cl)cc2)C(C(=O)N(C)C)C1 (stereo partly specified) | 8.8

* * *

# Ratio listing for each entry below
Biological target: Monoamine transporters; Norepinephrine & serotonin (Rattus norvegicus) (UniProt P31652+Q9WTR4)
Test: Ratio of affinity for Norepinephrine transporter to that of Serotonin transporter
Format: protein assay
measured_attribute: Ratio

given_smiles | readout_value
CN1CC[C@H](c2ccc(Cl)cc2)[C@@H](CCC(=O)NC23CC4CC(CC(C4)C2)C3)C1 | 0.26
COC(=O)/C=C/[C@H]1CN(C)CC[C@@H]1c1ccc(Cl)cc1 | 0.54
CN1CC[C@H](c2ccc(Cl)cc2)[C@@H](CC(=O)NC23CC4CC(CC(C4)C2)C3)C1 | 2.9
CN1CC[C@H](c2ccc(Cl)cc2)[C@@H](CCCF)C1 | 0.069
CCNC(=O)OC[C@H]1CN(C)CC[C@@H]1c1ccc(Cl)cc1 | 0.12

* * *

Target: Monoamine transporters; Norepinephrine & serotonin (Rattus norvegicus) (UniProt P31652+Q9WTR4)
Assay: Ratio of affinity for Norepinephrine transporter to that of Serotonin transporter
Assay type: protein assay
# Ratio listing for each entry below
measured_attribute: Ratio

compound | readout_value
CN1CC[C@H](c2ccc(Cl)cc2)[C@@H](CC(=O)NCc2ccccc2)C1 | 0.56
CN1CC[C@H](c2ccc(Cl)cc2)[C@@H](C(=O)OCCCCCc2ccccc2)C1 | 0.21
CN1CC[C@H](c2ccc(Cl)cc2)C(C(=O)Oc2ccccc2)C1 (some centres undefined) | 1
CN1CC[C@H](c2ccc(Cl)cc2)[C@@H](COC(=O)Nc2ccccc2)C1 | 0.026
CC(=O)OC[C@H]1CN(C)CC[C@@H]1c1ccc(Cl)cc1 | 0.26
CN1CC[C@H](c2ccc(Cl)cc2)[C@@H](CCCO)C1 | 0.2
CN1CC[C@H](c2ccc(Cl)cc2)[C@@H](CCC(=O)O)C1 | 0.094
CN1CC[C@H](c2ccc(Cl)cc2)[C@@H](C(=O)OC(C)(C)C)C1 | 0.061
CN1CC[C@H](c2ccc(Cl)cc2)[C@@H](COC(=O)NC23CC4CC(CC(C4)C2)C3)C1 | 1.5
COC(=O)CC[C@H]1CN(C)CC[C@@H]1c1ccc(Cl)cc1 | 0.12
CN1CC[C@H](c2ccc(Cl)cc2)C(C(=O)N(C)C)C1 (some centres undefined) | 0.03
C=CCOC[C@H]1CN(C)CC[C@@H]1c1ccc(Cl)cc1 | 0.087
CN1CC[C@H](c2ccc(Cl)cc2)[C@@H](CC(=O)OCCCc2ccccc2)C1 | 0.59
CN1CC[C@H](c2ccc(Cl)cc2)[C@@H](CC(=O)N(C)C)C1 | 0.023

* * *

Target: UniProtKB P31652
Experiment: Ability to inhibit high affinity uptake of [3H]-5-HT at Serotonin transporter (SERT) using rat midbrain
Assay type: tissue-based
Sequence (P31652 whole entry): as the sequence (P31652 whole entry, looked up) above
# Y = Ki below 2 µM (exclusive); N = Ki at/above 2 µM

molecule | cat
CCC[C@H]1CN(C)CC[C@@H]1c1ccc(Cl)cc1 | Y
CN1CC[C@H](c2ccc(Cl)cc2)[C@@H](COC(=O)c2ccccc2)C1 | Y
COC(=O)CC[C@H]1CN(C)CC[C@@H]1c1ccc(Cl)cc1 | Y
CN1CC[C@H](c2ccc(Cl)cc2)[C@@H](COC(=O)Nc2ccccc2)C1 | Y
CN1CC[C@H](c2ccc(Cl)cc2)C(C(=O)N(C)C)C1 (some centres not stated) | N
CN1CC[C@H](c2ccc(Cl)cc2)[C@@H](CC(=O)OCCCc2ccccc2)C1 | Y
CN1CC[C@H](c2ccc(Cl)cc2)[C@@H](C(=O)OCCCCCc2ccccc2)C1 | Y
CN1CC[C@H](c2ccc(Cl)cc2)[C@@H](CC(=O)O)C1 | N
C=CCOC[C@H]1CN(C)CC[C@@H]1c1ccc(Cl)cc1 | Y
CN1CC[C@H](c2ccc(Cl)cc2)[C@@H](CCCF)C1 | N
CN1CC[C@H](c2ccc(Cl)cc2)[C@@H](CC(=O)NC23CC4CC(CC(C4)C2)C3)C1 | Y
CN1CC[C@H](c2ccc(Cl)cc2)[C@@H](CC(=O)N(C)Cc2ccccc2)C1 | Y
CN1CC[C@H](c2ccc(Cl)cc2)[C@@H](CCCO)C1 | N
CCOC(=O)C[C@H]1CN(C)CC[C@@H]1c1ccc(Cl)cc1 | Y
CNC(=O)C[C@H]1CN(C)CC[C@@H]1c1ccc(Cl)cc1 | N
CN1CC[C@H](c2ccc(Cl)cc2)C(C(=O)Oc2ccccc2)C1 (some centres not stated) | N

* * *

# pKi listing for each entry below
Target: Sodium-dependent dopamine transporter (Rattus norvegicus, UniProt P23977)
Sequence (P23977 whole entry): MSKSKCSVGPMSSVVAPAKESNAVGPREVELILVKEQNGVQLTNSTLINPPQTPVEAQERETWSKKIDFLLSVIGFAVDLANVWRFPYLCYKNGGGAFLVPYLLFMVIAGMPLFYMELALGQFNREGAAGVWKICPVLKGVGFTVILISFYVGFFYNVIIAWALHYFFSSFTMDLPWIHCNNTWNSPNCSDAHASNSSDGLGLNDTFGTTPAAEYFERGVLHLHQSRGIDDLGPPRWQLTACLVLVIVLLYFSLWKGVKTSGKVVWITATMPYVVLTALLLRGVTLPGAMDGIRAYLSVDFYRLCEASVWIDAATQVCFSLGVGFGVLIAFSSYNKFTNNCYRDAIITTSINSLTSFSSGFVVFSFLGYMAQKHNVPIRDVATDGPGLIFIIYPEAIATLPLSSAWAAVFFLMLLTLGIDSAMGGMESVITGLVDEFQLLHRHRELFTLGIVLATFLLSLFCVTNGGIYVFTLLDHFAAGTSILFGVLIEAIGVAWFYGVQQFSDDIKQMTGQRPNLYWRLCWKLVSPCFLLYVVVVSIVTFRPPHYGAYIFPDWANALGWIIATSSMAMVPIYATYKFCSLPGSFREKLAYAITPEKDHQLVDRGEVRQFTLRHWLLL
Assay: Ability to inhibit high affinity uptake of [3H]DA at Dopamine transporter (DAT) using rat brain striatum
pKi: −log10 of the molar value.

molecule | pKi
CCC[C@H]1CN(C)CC[C@@H]1c1ccc(Cl)cc1 | 7.70
CN1CC[C@H](c2ccc(Cl)cc2)[C@@H](CCCF)C1 | 7.37
CN1CC[C@H](c2ccc(Cl)cc2)[C@@H](CC(=O)O)C1 | 5.52
CN1CC[C@H](c2ccc(Cl)cc2)C(C(=O)Oc2ccccc2)C1 (some centres not stated) | 6.04
CN1CC[C@H](c2ccc(Cl)cc2)[C@@H](CC(=O)OCCCc2ccccc2)C1 | 7.44
CN1CC[C@H](c2ccc(Cl)cc2)[C@@H](COC(=O)Nc2ccccc2)C1 | 7.04
CN1CC[C@H](c2ccc(Cl)cc2)[C@@H](CC(=O)NCc2ccccc2)C1 | 6.57
CN1CC[C@H](c2ccc(Cl)cc2)[C@@H](CC(=O)NC23CC4CC(CC(C4)C2)C3)C1 | 6.15
CN1CC[C@H](c2ccc(Cl)cc2)[C@@H](COC(=O)c2ccccc2)C1 | 6.56
COC(=O)CC[C@H]1CN(C)CC[C@@H]1c1ccc(Cl)cc1 | 7.17
CCNC(=O)OC[C@H]1CN(C)CC[C@@H]1c1ccc(Cl)cc1 | 6.74
CN1CC[C@H](c2ccc(Cl)cc2)[C@@H](COC(=O)NC23CC4CC(CC(C4)C2)C3)C1 | 7.25
CN1CC[C@H](c2ccc(Cl)cc2)[C@@H](CC(=O)N(C)C)C1 | 7.80
CN1CC[C@H](c2ccc(Cl)cc2)[C@@H](CCC(=O)NC23CC4CC(CC(C4)C2)C3)C1 | 6.35
CN1CC[C@H](c2ccc(Cl)cc2)[C@@H](CCC(=O)O)C1 | 5.89
CN1CC[C@H](c2ccc(Cl)cc2)[C@@H](C(=O)OCCCCCc2ccccc2)C1 | 7.28
CN1CC[C@H](c2ccc(Cl)cc2)[C@@H](CCC(=O)Nc2ccccc2)C1 | 6.70
COC(=O)/C=C/[C@H]1CN(C)CC[C@@H]1c1ccc(Cl)cc1 | 7.28
C=CCOC[C@H]1CN(C)CC[C@@H]1c1ccc(Cl)cc1 | 7.22
CC(=O)OC[C@H]1CN(C)CC[C@@H]1c1ccc(Cl)cc1 | 6.22
CN1CC[C@H](c2ccc(Cl)cc2)[C@@H](CC(=O)N(C)Cc2ccccc2)C1 | 6.78
CN1CC[C@H](c2ccc(Cl)cc2)[C@@H](CCCO)C1 | 7.80
